# STUDY SYSTEM: T1, SND1 650-910 TUDOR+SNase (domain begin residue: 650, domain end residue: 910), Q7KZF4
# T1 chain: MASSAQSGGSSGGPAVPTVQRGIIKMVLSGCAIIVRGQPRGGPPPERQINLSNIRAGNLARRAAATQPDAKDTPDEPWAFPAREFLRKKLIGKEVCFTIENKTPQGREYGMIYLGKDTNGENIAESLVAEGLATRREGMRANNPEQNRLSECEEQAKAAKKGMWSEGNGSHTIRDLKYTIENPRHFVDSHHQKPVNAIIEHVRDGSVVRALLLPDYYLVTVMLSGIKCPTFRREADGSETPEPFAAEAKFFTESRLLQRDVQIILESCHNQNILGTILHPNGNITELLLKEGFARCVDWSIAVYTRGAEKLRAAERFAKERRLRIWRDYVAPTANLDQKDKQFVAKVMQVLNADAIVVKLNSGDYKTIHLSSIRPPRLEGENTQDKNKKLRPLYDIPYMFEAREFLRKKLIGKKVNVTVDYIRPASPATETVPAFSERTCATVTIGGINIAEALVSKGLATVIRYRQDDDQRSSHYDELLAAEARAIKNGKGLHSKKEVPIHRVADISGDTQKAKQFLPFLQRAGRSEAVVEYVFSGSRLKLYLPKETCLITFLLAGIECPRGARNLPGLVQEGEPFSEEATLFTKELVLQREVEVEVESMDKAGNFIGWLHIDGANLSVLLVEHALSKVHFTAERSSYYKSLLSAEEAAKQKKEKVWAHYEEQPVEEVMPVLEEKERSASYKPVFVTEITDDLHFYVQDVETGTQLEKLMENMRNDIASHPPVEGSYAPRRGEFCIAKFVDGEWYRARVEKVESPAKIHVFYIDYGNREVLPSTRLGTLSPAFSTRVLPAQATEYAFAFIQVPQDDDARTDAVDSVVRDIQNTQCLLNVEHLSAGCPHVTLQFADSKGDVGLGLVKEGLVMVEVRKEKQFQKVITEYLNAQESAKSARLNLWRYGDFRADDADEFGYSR
# METHOD NOTES: phage ELISA signal ratio (GST-PRM binding over GST background); higher = stronger binding of peptide-phage to the PRM
ENDPOINT LABEL: phage ELISA signal ratio

Your task in this section: give phage ELISA signal ratio for each listed record.
1. DGWGWDHIEIEMPYEE
2. PWDMIWDDPSWAPMLE
3. MWWYDGEMEKMIMETL

Reply text:
[8.36, 7.49, 7.5]

Just for reference, the supplement of paper PMC7724964 is where these values come from.
